Molecular target: T1, mouse TREM2 full length stalk region peptide (aa 131-169) (mouse, UniProt Q99NH8 131-169, biotinylated (site not stated))
T1 peptide (looked up): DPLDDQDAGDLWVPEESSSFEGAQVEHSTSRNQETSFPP
Assay: ELISA on biotinylated peptide captured by streptavidin; A450 normalised to isotype control
Procedure: TREM2 antibodies were evaluated for binding to human and mouse TREM2 stalk region peptides. […] Antibody binding to TREM2 stalk peptides was detected using standard sandwich ELISA. Briefly, a 96-well half-area ELISA plate was coated with streptavidin overnight at 4° C. […] Antibodies bound to peptide were detected with anti-human kappa-HRP secondary antibody (Bethyl Laboratories, Inc.) diluted in 1% BSA/PBS. […]
Measured fold over background (A450) of individual entries
Just so you know, I need the unit written after the number.

Known fold over background (A450) results, listed for orientation:
binder	fold over background (A450)
CL0020124 (antibody, V domains shown, also called Clone CL0020124) VH: EVQLQQSGPVLVKPGASVKMSCKPSGYTFTDYYMNWVKQSHGKSLEWIGSINPYTGGSSYNQKFRGKATLTVDKSSSTAYMELNSLTSEDSAVYYCARGSYYSNLGFAYWGQGTLVTVSA VL: DVQLTQSPSYLTASPGETITINCRASKSISKYLAWYQEKPGKTNKLLISSGSTLQSGIPSRFSGSGSGTDFTLTISSLEPEDFAMYYCQQYSEYPFTFGSGTKLEIK	1.6 fold
CL0020186 (antibody, V domains shown, also called Clone CL0020186) VH: EVQLVESGGGLVQPGRSLKLSCPASGFTFSYYGMAWVRQAPTKGLEWVASISTGGGNTYYRDSVKGRFTISRDNAKNTLYLQMDSLRSEDTATYYCARGDIGTAYWFTYWGQGTLVTVSS VL: NIQLTQSPSLLSASVGDRVTLSCKGSQNINNYLAWYQQKLGEAPKLLIYKTNSLLTGIPSRFSGSGSGTDYTLTISSLHSEDLATYYCYQYNNGWTFGGGTKLELK	7 fold
CL0020109 (antibody, V domains shown, also called Clone CL0020109) VH: EVQLQQSGPVLVKPGASLKMSCRASGYTFTDYYVHWVKQSHGKSLEWIGLINPYTGTTSYNQRFKGKATLTVDKSSSTAYMEVNSLTSEDSAVYYCARSRVYYGSSLFAFWGQGTLVTVSA VL: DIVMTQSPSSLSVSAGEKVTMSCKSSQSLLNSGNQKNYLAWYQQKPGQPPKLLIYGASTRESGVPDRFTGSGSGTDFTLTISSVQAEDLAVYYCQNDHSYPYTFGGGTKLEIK	1.7 fold
CL0020162 (antibody, V domains shown, also called Clone CL0020162) VH: QIQLVQSGPELKKPGESLKISCKASGYTFTDYAMQWVKQAPEKGLQYMGWINTQTGKPTYADDFKERFVFSLETSATTAYLQINNLKNEDMATYFCVRSYNNYENWFAYWGQGTLVTVSS VL: DIVMTQSPSSLAVSAGETVTINCKSSQSLLYSGNQKNYLAWYQQKPGQSPKVLIYWASTRQFGVPDRFIGSGSGTDFTLTISSVQAEDLAIYYCQQYYNSPITFGSGTKLEIK	10 fold
CL0020206 (antibody, V domains shown, also called Clone CL0020206) VH: EVQLQQSGPVLVKPGASVKMSCKASGYTFTDYYMNWVKQSHGKSLEWIGIINPYSGGISYNQKFKGKAILTVDKSSSTAYMELNSLTSEASAVYYCTRRNWDGRYAMDYWGQGTSVTVSS VL: DIVMTQSHKFMSTSVGDRVSITYKASQDVGSAVAWYQQKPGQSPKLLIYWTSTRHTGVPDRFTGSGSGTDFTLTISNVQSEDLADYFCQQYSSYPFTFGGGTKLEIK	1.6 fold

Name the recorded fold over background (A450) for CL0020215 (antibody, V domains shown, also called Clone CL0020215) VH: QVQLQQPGAELVKPGASVKMSCKASGYTFTNYWIMWVKQRPGQGLEWIGDIYPSSGSTNYNEKFKNRATLTVDTSSNTAYMQLSSLTSEDSAVYFCSREGYGISAWGQGTTLTVSS VL: QIVLTQSPAIMSASPGEKVTITCSASSSVSYMHWFQQKPGTSPKLWIYSTSNLASGVPARFSGSGSGTSCSLTISRMEAEDAATYYCQQRSSFPLTFGAGTKLELK .
1.1 fold

What value of fold over background (A450) has been recorded for this entry: CL0020127 (antibody, V domains shown, also called Clone CL0020127) VH: EVQLQQSGPVLVKPGASVKMSCKASGYKFTDYYMNWVKQSHGKSLEWIGTINPYSGGISYNQKFKGKATLTVDKSSSTAYMELNSLTSEASAVYYCTRRNWDGRYAMDYWGQGTSVTVSS VL: DIVMTQSHKFMSTSVGDRVSITCKASQDVSTAVAWYQQKPGQSPKLLIYWASTRHTGVPDRFTGSGSGTDFTLTISNVQSEDLAEYFCQQYSSYPFTFGGGTKLEIK
1.3 fold

Fill in the blank: the reported fold over background (A450) of CL0020164 (antibody, V domains shown, also called Clone CL0020164) VH: EVKLLESGGGLVQPGGSLRLSCAASGFTFTDFYMSWIRQPPGKAPEWLGVIRNKANGFTTEYNTSVKGRFTISRDYTQNILHLQTNTLRAEDTAIYYCARLTYGFDYWGQGVMVTVSS VL: DIVMTQGALPNPVPSGESASITCQSSKSLLHSNGKTYLNWYLQRPGQSPQFLIYWMSTRASGVSDRFSGSGSGTDFTLKISSVEAEDVGVYYCQQFLELPFTFGSGTKLEIK is ____.
51 fold

Can you share its fold over background (A450)? I mean this binder: CL0020139 (antibody, V domains shown, also called Clone CL0020139) VH: EVQLQQSGPELVKPGASVKMSCKAPGYSFTSYLMNWVKQKPGQGLEWIGYINPYSAGSNYNEKFKDKATLTSDKSSSTAYMELRSLTSEDSAVYFCARSSYRYGFDYWGQGTTLTVSS VL: DIQMTQSSSSFSVSLGDRVTITCKASEDIYNRLAWYQQKPGNAPRLLISGATSLETGVPSRFSGSGSGKDYTLSITSLQTEDVATYSCQQYWSTPWTFGGGTKLEIK
1.4 fold
